Parameter IC50: see the listing below.
Target of assay: human cloned 5-HT2A receptor, expressed in L929 cells (Homo sapiens, UniProt P28223)
Construct: expressed in transfected cells; host or cells: L929 cells
Sequence (P28223 whole entry): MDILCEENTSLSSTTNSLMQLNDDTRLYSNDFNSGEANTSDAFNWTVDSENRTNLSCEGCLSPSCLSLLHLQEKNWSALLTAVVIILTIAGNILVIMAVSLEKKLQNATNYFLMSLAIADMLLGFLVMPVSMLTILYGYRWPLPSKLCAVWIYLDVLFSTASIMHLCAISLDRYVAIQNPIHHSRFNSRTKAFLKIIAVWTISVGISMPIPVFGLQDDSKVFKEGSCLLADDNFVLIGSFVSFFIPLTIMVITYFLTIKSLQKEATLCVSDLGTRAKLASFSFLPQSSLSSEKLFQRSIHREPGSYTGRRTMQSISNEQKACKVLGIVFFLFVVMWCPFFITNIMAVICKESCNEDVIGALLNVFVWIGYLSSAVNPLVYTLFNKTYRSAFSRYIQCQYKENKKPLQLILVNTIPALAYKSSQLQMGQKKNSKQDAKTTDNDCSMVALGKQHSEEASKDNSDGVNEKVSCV
Procedure summary: In vitro binding affinity for 5-HT2A receptor ([125I]R91150 radioligand binding)
Reported conditions: human cloned 5-HT2A receptor in L929 cells, [125I]R91150; read-out: 5-HT2A pIC50 (converted)
Experimental: In Vitro Binding Affinity for 5-HT2A and 5-HT2C Receptors The interaction of the compounds of Formula (I) with 5-HT2A and 5-HT2C receptors was assessed in in vitro radioligand binding experiments. […] When equilibrium of binding is reached, the receptor bound radioactivity is separated from the non-bound radioactivity, and the receptor bound activity is counted. The interaction of the test compounds with the receptors is assessed in competition binding experiments. […]
Reply with just the number (in nM).

Molecule	Readout number
Fc1ccc2c(c1)C1OC(CN3CCC(Oc4ccccc4F)C3)CC1c1ccccc1C2 (mixture of isomers)	7.24
OCCCC1CCN(CC2CC3c4ccccc4Cc4ccc(F)cc4C3O2)CC1 (stereo not shown)	1.51
C=CC1(O)CCN(CC2CC3c4ccccc4Cc4ccc(F)cc4C3O2)C1 (stereo not shown)	1.23

Moving on to the next molecule.
Enter reported IC50 observed with human cloned 5-HT2A receptor, expressed in L929 cells (Homo sapiens, UniProt P28223) for OC(COc1ccc(Cl)cc1)CN1CCN(C[C@H]2C[C@@H]3c4ccccc4Cc4ccc(F)cc4[C@@H]3O2)CC1 (stereo partly shown)
6.03
